assay: AP1 Signaling Pathway (AID 357); conditions: ME-180 (cervical carcinoma) AP-1-bla reporter, EGF-induced, beta-lactamase ratio, 5 h; at 17.2 µM (top of the series) unless noted;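 note: ME-180 reporter cells stimulated with EGF at its EC50 level; % is set by controls: 0 for no effect and ±100 for the full control effect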
Records with an inconclusive call do not appear. Calls of active or inactive are those of the source. Calls come from the whole dose curve; as a rule, active = well fitted curve in either direction with a large enough effect (not every such curve was filed as active); inconclusive = small, poorly fitted or top-dose-only effect, or another doubt; inactive = flat fitted curve, though single readings scatter.
parameterMeasured: activity change, negative = inhibition

Consider the following illustrative entries.
{"columns": ["compound", "activity change, negative = inhibition"],
 "data": [
  ["CNc1oc(-c2ccccc2Cl)nc1C#N", "-4.94% (inactive)"],
  ["Cc1ccc(C(=O)C2=C(O)C(=O)N(c3ncccn3)C2c2cccc(Cl)c2)o1 (stereo not given)", "-1.15% (inactive)"],
  ["N#C/C(C(=O)NCc1ccccc1)=C1\\SC(CCO)C(=O)N1c1ccccc1 (stereo not given)", "-9.75% (inactive)"],
  ["CCOC(=O)N1CC=C2C(C#N)=C(N)C(C#N)(C#N)[C@H](c3cccs3)[C@H]2C1", "6.03% (inactive)"],
  ["Cn1c(=O)c2c(nc(NCc3ccco3)n2Cc2ccc(Cl)cc2Cl)n(C)c1=O", "4.86% (inactive)"]
]}

Item under review: CN1CCN(c2ncnc3c2[nH]c2ccc(F)cc23)CC1 . Reported activity change, negative = inhibition? 7.75% (inactive)

Return reported activity change, negative = inhibition; argument: Cc1ccc2cc(CNC(C)C)c(=O)[nH]c2c1 3.13% (inactive)

Which activity change, negative = inhibition is reported for this compound? CC(C)(C)c1cc(-c2ccco2)c(C#N)c(SCC#N)n1 28.8% (inactive)

Field request: activity change, negative = inhibition | item: NC(=O)/C(=N\O)c1ccccc1 -4.98% (inactive)

Query: activity change, negative = inhibition; subject: Cn1c(OCc2cccnc2)nc2c1c(=O)n(Cc1ccc(Cl)cc1)c(=O)n2C -16.3% (inactive)

What does the record list as activity change, negative = inhibition for COc1ccc(Cn2c(N)c(C#N)c3nc4ccccc4nc32)cc1OC ? -3.62% (inactive)

These measurements were taken from PubChem BioAssay (NCATS).
